Numbers sourced from ChEMBL document CHEMBL4819134.

Assayed target: MAP kinase-interacting serine/threonine-protein kinase 2 (Homo sapiens, UniProt Q9HBH9)
Sequence (Q9HBH9 whole entry, the tested form may be a part): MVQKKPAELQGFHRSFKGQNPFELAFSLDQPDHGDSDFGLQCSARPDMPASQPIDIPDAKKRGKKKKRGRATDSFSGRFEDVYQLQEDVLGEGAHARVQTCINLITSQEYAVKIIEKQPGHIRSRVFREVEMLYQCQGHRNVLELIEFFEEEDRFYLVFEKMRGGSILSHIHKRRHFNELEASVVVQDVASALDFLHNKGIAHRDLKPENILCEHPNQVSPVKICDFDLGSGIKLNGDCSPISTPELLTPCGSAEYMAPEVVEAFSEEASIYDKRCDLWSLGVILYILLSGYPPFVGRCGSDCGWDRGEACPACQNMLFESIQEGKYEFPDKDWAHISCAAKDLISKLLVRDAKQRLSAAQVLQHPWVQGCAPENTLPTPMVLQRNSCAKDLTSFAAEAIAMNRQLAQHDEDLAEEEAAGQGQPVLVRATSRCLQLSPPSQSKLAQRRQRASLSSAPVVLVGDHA
Protocol details: Inhibition of N-terminal GST-fused human full length recombinant MNK2 (1 to 465 residues) expressed in baculovirus-infected Sf21 cells using TATKSGSTTKNR as substrate preincubated with enzyme and substrate for 10 mins followed by ATP addition and measured after 40 mins by ADP-glo luminescence assay
Quantity kind: log10(IC50) (log10 of the value in nM)
For clarity, the numbers are log10 values of IC50 expressed in nM.

>>> print(df.to_string())
                                     smiles                            assayed_target  quantitative_readout
0  N[C@@H]1CCCN(C(=O)c2ccc(-c3ccc4ncc(-c5ccc6cnccc6c5)n4n3)cc2)C1  MAP kinase-interacting serine/threonine-protein kinase 2 (Homo sapiens, UniProt Q9HBH9)                  0.82
1  O=C(c1ccc(-c2ccc3ncc(-c4ccc5cnccc5c4)n3c2)cc1)N1CCC(N2CCOCC2)CC1  MAP kinase-interacting serine/threonine-protein kinase 2 (Homo sapiens, UniProt Q9HBH9)                  0.51
2  NC1CCN(C(=O)c2ccc(-c3cn4c(-c5ccc6cnccc6c5)cnc4cn3)cc2)CC1  MAP kinase-interacting serine/threonine-protein kinase 2 (Homo sapiens, UniProt Q9HBH9)                  1.27
3  NC1CCN(C(=O)c2ccc(-c3ccc4ncc(-c5ccc6cnccc6c5)n4c3)cc2)CC1  MAP kinase-interacting serine/threonine-protein kinase 2 (Homo sapiens, UniProt Q9HBH9)                  1.23
4  N[C@@H]1CCCN(C(=O)c2ccc(-c3cn4c(-c5ccc6cnccc6c5)cnc4cn3)cc2)C1  MAP kinase-interacting serine/threonine-protein kinase 2 (Homo sapiens, UniProt Q9HBH9)                  1.43
5  O=C(c1ccc(-c2ccc3ncc(-c4ccc5cnccc5c4)n3c2)cc1)N1CCNCC1  MAP kinase-interacting serine/threonine-protein kinase 2 (Homo sapiens, UniProt Q9HBH9)                  0.46
6  O=C(c1ccc(-c2ccc3ncc(-c4ccc5ncccc5c4)n3c2)cc1)N1CCOCC1  MAP kinase-interacting serine/threonine-protein kinase 2 (Homo sapiens, UniProt Q9HBH9)                  2.33
7  O=C(c1ccc(-c2ccc3ncc(-c4cnc5ccccc5c4)n3c2)cc1)N1CCNCC1  MAP kinase-interacting serine/threonine-protein kinase 2 (Homo sapiens, UniProt Q9HBH9)                  1.71
8  O=C(c1ccc(-c2ccc3ncc(-c4ccc5cnccc5c4)n3c2)cc1)N1CCOCC1  MAP kinase-interacting serine/threonine-protein kinase 2 (Homo sapiens, UniProt Q9HBH9)                  1.41
9  N[C@H]1CCCN(C(=O)c2ccc(-c3ccc4ncc(-c5ccc6cnccc6c5)n4n3)cc2)C1  MAP kinase-interacting serine/threonine-protein kinase 2 (Homo sapiens, UniProt Q9HBH9)                  0.53

Exercise: Tell us which log10(IC50) value is on record for N[C@H]1CCCN(C(=O)c2ccc(-c3ccc4ncc(-c5ccc6cnccc6c5)n4c3)cc2)C1
Solution: 0.40

---

Assayed target: MAP kinase-interacting serine/threonine-protein kinase 1 (Homo sapiens, UniProt Q9BUB5)
Sequence (Q9BUB5 whole entry, the tested form may be a part): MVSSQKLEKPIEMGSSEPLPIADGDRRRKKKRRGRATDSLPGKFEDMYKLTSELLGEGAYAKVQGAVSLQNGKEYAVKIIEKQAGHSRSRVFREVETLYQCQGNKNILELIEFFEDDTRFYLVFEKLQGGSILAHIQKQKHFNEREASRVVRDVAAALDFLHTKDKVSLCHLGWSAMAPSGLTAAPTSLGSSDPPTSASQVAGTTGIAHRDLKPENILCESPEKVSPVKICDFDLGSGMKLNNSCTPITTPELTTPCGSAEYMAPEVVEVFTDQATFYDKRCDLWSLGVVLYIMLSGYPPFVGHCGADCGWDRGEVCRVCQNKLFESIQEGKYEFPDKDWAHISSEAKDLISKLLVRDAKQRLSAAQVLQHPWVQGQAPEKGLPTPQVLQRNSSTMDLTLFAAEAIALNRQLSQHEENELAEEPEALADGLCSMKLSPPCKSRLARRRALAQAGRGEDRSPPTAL
Protocol details: Inhibition of N-terminal GST-fused human full length recombinant MNK1 (1 to 424 residues) expressed in baculovirus-infected Sf21 cells using TATKSGSTTKNR as substrate preincubated with enzyme and substrate for 10 mins followed by ATP addition and measured after 40 mins by ADP-glo luminescence assay
Friendly reminder: IC50 below 4 nM is y, at or above is n.

Consider the worked cases shown below.
In [3]: df
Out[3]:
                                     smiles  class_name
0  O=C(c1ccc(-c2ccc3ncc(-c4ccc5ncccc5c4)n3c2)cc1)N1CCOCC1           n
1  N[C@H]1CCCN(C(=O)c2ccc(-c3cn4c(-c5ccc6cnccc6c5)cnc4cn3)cc2)C1           n
2  N[C@@H]1CCCN(C(=O)c2ccc(-c3ccc4ncc(-c5ccc6cnccc6c5)n4c3)cc2)C1           n

Exercise: Determine if O=C(c1ccc(-c2ccc3ncc(-c4ccc5cnccc5c4)n3c2)cc1)N1CCC(N2CCCCC2)CC1 shows IC50 strictly lower than 4 nM.
Solution: y

Exercise: Please indicate whether the reported IC50 of N[C@@H]1CCCN(C(=O)c2ccc(-c3ccc4ncc(-c5ccc6cnccc6c5)n4n3)cc2)C1 is strictly below 4 nM.
Solution: n

Exercise: Quick check: does N[C@H]1CCCN(C(=O)c2ccc(-c3ccc4ncc(-c5ccc6cnccc6c5)n4c3)cc2)C1 have IC50 under 4 nM?
Solution: y

Exercise: Given the entry NC1CCN(C(=O)c2ccc(-c3ccc4ncc(-c5ccc6cnccc6c5)n4n3)cc2)CC1 , would its reported IC50 be below 4 nM?
Solution: n

Exercise: Does the reported IC50 of N[C@H]1CCCN(C(=O)c2ccc(-c3ccc4ncc(-c5ccc6cnccc6c5)n4n3)cc2)C1 stay below 4 nM?
Solution: y
